Reported values: Ki for UniProtKB P31652, one per item.
Sequence (P31652 whole entry): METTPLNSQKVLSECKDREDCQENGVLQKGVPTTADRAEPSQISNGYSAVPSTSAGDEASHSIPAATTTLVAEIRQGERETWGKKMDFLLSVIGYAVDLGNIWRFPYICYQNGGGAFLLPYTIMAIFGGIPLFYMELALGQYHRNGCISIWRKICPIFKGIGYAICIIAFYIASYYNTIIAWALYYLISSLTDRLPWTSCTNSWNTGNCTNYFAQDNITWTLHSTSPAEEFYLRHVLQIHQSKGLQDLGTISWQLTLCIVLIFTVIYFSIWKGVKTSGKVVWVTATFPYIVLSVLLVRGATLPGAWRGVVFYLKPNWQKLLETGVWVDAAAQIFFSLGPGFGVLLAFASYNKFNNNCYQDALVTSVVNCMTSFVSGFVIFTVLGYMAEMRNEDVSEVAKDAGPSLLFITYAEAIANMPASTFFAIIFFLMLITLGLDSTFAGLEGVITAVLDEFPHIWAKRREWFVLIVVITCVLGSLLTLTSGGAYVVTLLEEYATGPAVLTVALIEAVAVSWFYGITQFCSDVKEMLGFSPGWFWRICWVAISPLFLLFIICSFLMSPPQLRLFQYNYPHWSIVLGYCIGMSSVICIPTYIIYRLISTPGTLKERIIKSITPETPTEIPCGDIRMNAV
Kindly provide the numeric value in nM only, without the unit symbol.

Read the entry `Clc1cccc(N2CCNCC2)c1` and write its reported Ki. 218

Read the entry CC(O)c1nn(CCCN2CCN(c3ccc(Cl)cc3)CC2)c(=O)n1CCOc1ccccc1 (stereo not drawn) and write its reported Ki. 612

* * *

Please respond with reported Ki for every item in the list.
Target: 5-hydroxytryptamine receptor 1A (Rattus norvegicus)
Sequence (P19327 whole entry): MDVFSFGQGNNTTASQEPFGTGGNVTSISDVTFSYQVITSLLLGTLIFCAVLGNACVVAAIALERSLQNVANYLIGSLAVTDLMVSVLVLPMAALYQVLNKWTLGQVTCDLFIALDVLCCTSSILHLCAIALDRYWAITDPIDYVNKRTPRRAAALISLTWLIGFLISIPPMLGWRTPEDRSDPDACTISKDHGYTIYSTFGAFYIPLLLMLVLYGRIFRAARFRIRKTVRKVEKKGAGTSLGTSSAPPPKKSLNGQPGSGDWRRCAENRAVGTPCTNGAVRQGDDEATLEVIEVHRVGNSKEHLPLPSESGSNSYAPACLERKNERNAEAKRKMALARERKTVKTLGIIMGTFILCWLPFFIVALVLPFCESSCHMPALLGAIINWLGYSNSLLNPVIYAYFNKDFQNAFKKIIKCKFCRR
Kindly provide the numeric value in nM only, without the unit symbol.

Read the entry CC(O)c1nn(CCCN2CCN(c3ccc(Cl)cc3)CC2)c(=O)n1CCOc1ccccc1 (configuration not stated) and write its reported Ki. 56

Read the entry `CN(C)CCC=C1c2ccccc2CCc2ccccc21` and write its reported Ki. 129

Read the entry `O=c1[nH]n(CCCN2CCN(c3cccc(Cl)c3)CC2)c(=O)n1CCOc1ccccc1` and write its reported Ki. 1370

Read the entry `Clc1cccc(N2CCNCC2)c1` and write its reported Ki. 16

Read the entry `CCc1nn(CCCN2CCN(c3cccc(Cl)c3)CC2)c(=O)n1CCOc1ccccc1` and write its reported Ki. 52
